- tested system: T1, recombinant mouse VISTA (His-tagged) (mouse, UniProt Q9D659 33-191)
- T1 construct: also called murine VISTA; mVISTA
- T1 sequence (looked up): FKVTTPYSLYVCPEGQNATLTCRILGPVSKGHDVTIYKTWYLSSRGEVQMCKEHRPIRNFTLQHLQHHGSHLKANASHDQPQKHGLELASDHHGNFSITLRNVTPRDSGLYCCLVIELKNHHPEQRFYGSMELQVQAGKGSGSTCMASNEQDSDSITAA
- assay method text: BLI (Octet), 1:1 global fit, His-tagged mouse VISTA captured
measurement kind: koff

Worked examples follow.
- binder: "anti-VISTA clone V4-C27 IgG1 (antibody, V domains shown) VH: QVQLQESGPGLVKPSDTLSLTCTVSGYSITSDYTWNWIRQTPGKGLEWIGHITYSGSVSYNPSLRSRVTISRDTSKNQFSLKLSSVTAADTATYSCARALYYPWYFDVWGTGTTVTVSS VL: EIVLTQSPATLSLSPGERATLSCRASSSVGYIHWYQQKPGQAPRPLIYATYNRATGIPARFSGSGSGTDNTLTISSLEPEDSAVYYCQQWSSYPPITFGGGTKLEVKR"
  koff: "5.5e-05 s⁻¹"
- binder: "anti-VISTA clone V4-C30 IgG1 (antibody, V domains shown) VH: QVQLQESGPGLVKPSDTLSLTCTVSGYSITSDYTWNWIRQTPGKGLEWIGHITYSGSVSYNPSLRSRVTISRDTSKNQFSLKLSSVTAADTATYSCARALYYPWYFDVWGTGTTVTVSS VL: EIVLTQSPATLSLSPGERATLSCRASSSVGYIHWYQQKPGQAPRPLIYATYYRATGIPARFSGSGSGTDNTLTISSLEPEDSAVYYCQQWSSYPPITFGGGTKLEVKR"
  koff: "< 1e-07 s⁻¹"

Continue with the next binder.
Query :: Which koff reading was recorded for the binder anti-VISTA clone V4-C24 IgG1 (antibody, V domains shown) VH: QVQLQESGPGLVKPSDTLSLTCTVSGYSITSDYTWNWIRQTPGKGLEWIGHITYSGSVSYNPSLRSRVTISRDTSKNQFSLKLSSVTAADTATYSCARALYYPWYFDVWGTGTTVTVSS VL: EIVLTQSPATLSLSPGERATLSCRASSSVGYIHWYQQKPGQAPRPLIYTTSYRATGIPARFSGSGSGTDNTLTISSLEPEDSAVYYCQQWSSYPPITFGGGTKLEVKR ?
Result :: < 1e-07 s⁻¹
